# Tested on: HOP-92 NSCLC
# assay remarks: NCI tumour cell line growth inhibition, 48 h
observed property: TGI (µM)
Kindly provide the numeric value in µM only, without the unit symbol.

Answered cases to consult:
{"columns": ["compound", "tested target", "TGI [µM]"],
 "data": [
  ["COC(=O)C(=Cc1cc(OC)c(OC)c(OC)c1-c1cc2c(cc1C1(C)OCCS1)OCO2)C(=O)OC (stereo not given)", "HOP-92 NSCLC", 37.6],
  ["Cc1cc(N[C@@H]2CCC[C@H](Nc3ccnc4cc(Cl)ccc34)C2)nc(N2CCCCCC2)n1", "HOP-92 NSCLC", 3.36],
  ["COC(=O)[C@]12CC[C@@H](C)[C@H](C)[C@@H]1C1=CC[C@@H]3[C@@]4(C)C[C@@H](O)[C@H](O)[C@@](C)(CO)C4=CC[C@@]3(C)[C@]1(C)CC2", "HOP-92 NSCLC", 34.9],
  ["O=C1c2cc(-c3ccccc3)cnc2S(=O)(=O)N1c1ccc(Br)cc1", "HOP-92 NSCLC", 72.1]
]}

Challenge: Output reported TGI of the compound "Nc1ncc(-c2ccc3ncnc(Nc4ccc(F)c(Cl)c4)c3c2)cn1" on HOP-92 NSCLC.
Response given: 3.52

====

// TGI lookup, one value per entry
# Tested on: MDA-MB-435
# assay remarks: NCI tumour cell line growth inhibition, 48 h
Kindly provide the numeric value in µM only, without the unit symbol.

Answered cases to consult:
{"columns": ["compound", "test result"],
 "data": [
  ["NC(=O)c1c(NC(=O)c2ccccc2)sc2c1CCC(=O)C2", 10.5],
  ["NCCCN1c2ccccc2Sc2ccc(Cl)cc21", 4.01],
  ["N#CC(C#N)=C1SC(=Nc2ccccc2)C(=Nc2ccccc2)N1c1ccccc1", 35.1],
  ["O=c1c(F)cn(Cc2ccc(C34CC5CC(CC(C5)C3)C4)c(O)c2)c(=O)n1Cc1ccc(C23CC4CC(CC(C4)C2)C3)c(O)c1", 29.2],
  ["Cc1nnc(Nc2ccc(NC(=O)Nc3ccc(Cl)cc3)cc2)c2ccccc12", 3.43],
  ["N=c1c2c(-c3ccccc3)c(-c3ccccc3)n(Cc3ccccc3)c2ncn1C1CCC(O)CC1 (stereo unspecified)", 4.89],
  ["C=C1CC(C#N)(C#N)[C@H]2C3CCCC3C[C@@H]12 (stereo partly specified) (tested in a mixture with another compound)", 44.5],
  ["N#C/C(=C\\c1ccc2ccccc2c1)C(=O)c1ccccc1", 43.2],
  ["COc1ccc2nc3ccccc3c(NCc3ccc(F)cc3)c2c1", 8.26]
]}

Now for the compound whose TGI we want.
Challenge: Hello, please tell me recorded TGI for this one: CC(=O)NC1C(OCc2ccccc2)OC(CO)C(O)C1OCC(=O)N[C@@H](C)C(=O)N[C@H](CCC(=O)NCCCNc1c2ccccc2nc2cccc([N+](=O)[O-])c12)C(N)=O (stereo partly specified)
Response given: 0.132

====

# Tested on: SK-MEL-2 melanoma
# assay remarks: NCI tumour cell line growth inhibition, 48 h
observed property: TGI

Answered cases to consult:
{"columns": ["compound", "tested target", "test result"],
 "data": [
  ["COCC(OC)C(CC=C(C#N)C#N)OC (stereo not drawn)", "SK-MEL-2 melanoma", "> 100 µM"],
  ["CC(NC(=O)Cc1ccccc1)NC(=O)C(C)C(=O)Nc1ccccc1 (stereo not drawn)", "SK-MEL-2 melanoma", "> 100 µM"]
]}

Challenge: Hello, please tell me recorded TGI for this one: "O=C(Cc1ccc(F)c(Cl)c1)Nc1cc(C2(C(F)(F)F)CC2)nn1CC1CCCCC1"
Response given: 13.3 µM

====

# System: NCI-H23 lung
# assay remarks: NCI tumour cell line growth inhibition, 48 h
observed property: TGI

{"columns": ["compound", "TGI"],
 "data": [
  ["NC(=O)c1c(NC(=O)c2ccccc2)sc2c1CCC(=O)C2", "5.83 µM"],
  ["CC(=O)Nc1ccc(-c2csc(Nc3cccc(-c4csc(C)n4)c3)n2)cc1", "> 27.7 µM"],
  ["O=C1OCC/C1=N/O", "> 100 µM"],
  ["CSC1=N/C(=C\\c2ccc(C)cc2)C(=O)N1CN1CCCCC1", "> 100 µM"],
  ["CC1OC(c2ccc3c(OCc4ccccc4)cccc3c2O)CC(OCc2ccccc2)[C@H]1OCc1ccccc1 (some centres not stated)", "> 10 µM"]
]}

Now for the compound whose TGI we want.
Challenge: Hello, please tell me recorded TGI for this one: "S=c1c2cn[nH]c2nc2scc(-c3ccc(Cl)cc3)n12"
Response given: 30.1 µM

====

# Tested on: COLO 205 colon
# assay remarks: NCI tumour cell line growth inhibition, 48 h; in the data active means GI50 below about 0.43 µM; inactive means the rest
Reply using exactly one outcome from t (active), f (inactive)

{"columns": ["molecule", "tested target", "class"],
 "data": [
  ["CC1(C)OC2C(CO[Si](C)(C)C(C)(C)C)OC(n3c(I)c(C#C[Si](C)(C)C)c(=O)[nH]c3=O)C2O1 (stereo unspecified)", "COLO 205 colon", "f"],
  ["COc1ccc(-c2nnc3n(C)c(=O)c4ccccc4n23)cc1N", "COLO 205 colon", "t"],
  ["N#Cc1nn(-c2cc(=O)[nH]c3ccc(Cl)cc23)c(N)c1C#N", "COLO 205 colon", "f"],
  ["COc1cc(N=Nc2ccc(O)c3ncccc23)c2ncccc2c1", "COLO 205 colon", "f"],
  ["CCC[CH2][Sn]([CH2]CCC)([O]C(=O)c1ccc(OC)c(OC)c1OC)[O][Sn]([CH2]CCC)([CH2]CCC)[O]C(=O)c1ccc(OC)c(OC)c1OC", "COLO 205 colon", "t"]
]}

Challenge: Please indicate how the test categorized "O=C(Nc1cccc(C(F)(F)F)c1)c1ccc(NC2=C(Cl)C(=O)N(Cc3ccc(Cl)cc3Cl)C2=O)cc1" .
Response given: f

Challenge: Please indicate how the test categorized "NC(N)=N/N=C/c1c(Cl)cccc1Cl" .
Response given: f

Challenge: Please indicate how the test categorized "Nc1ncn([C@@H]2O[C@H](CO)[C@@H](O)[C@H]2O)c(=O)n1" .
Response given: f

====

# Tested on: MDA-MB-231 breast
# assay remarks: NCI tumour cell line growth inhibition, 48 h; in the data active = GI50 below about 0.43 µM; inactive = the rest
Reply using exactly one outcome from 1 (yes) for active, 0 (no) for inactive

Check out these entries, answers already filled in.
{"columns": ["compound structure string", "class"],
 "data": [
  ["Cc1nc(Nc2cccnc2)sc1C(=O)/C=C/c1ccc(F)cc1", "0 (no)"],
  ["CN(C)CC[C@H](CSc1ccccc1)Nc1ccc(S(=O)(=O)NC(=O)c2ccc(N3CCN(Cc4ccccc4-c4ccc(Cl)cc4)CC3)cc2)cc1[N+](=O)[O-]", "0 (no)"],
  ["CCCC(=O)Nc1cn(COC)c(C(=O)N2C[C@@H]3C[C@]34C2=CC(=O)c2[nH]cc(C)c24)n1", "0 (no)"],
  ["COc1cc(C(=O)N2CCN(C(=O)c3cc(OC)c(OC)c(OC)c3)C2=S)cc(OC)c1OC", "0 (no)"],
  ["CCC[CH2][Sn]([CH2]CCC)([O]C(=O)c1ccc(OC)c(OC)c1OC)[O][Sn]([CH2]CCC)([CH2]CCC)[O]C(=O)c1ccc(OC)c(OC)c1OC", "0 (no)"]
]}

Challenge: Please indicate how the test categorized "CCOC(=O)Nc1cc2c(c(N)n1)N=C(c1ccccc1)CO2" .
Response given: 0 (no)

Challenge: Please indicate how the test categorized "CN(C)C1CCN(C(=O)c2ccc(NC(=O)Nc3ccc(-c4nc(N5CCOCC5)c5cccn5n4)cc3)cc2)CC1" .
Response given: 1 (yes)

Challenge: Please indicate how the test categorized "O=C(Nc1cccc(C(F)(F)F)c1)c1ccc(NC2=C(Cl)C(=O)N(Cc3ccc(Cl)cc3Cl)C2=O)cc1" .
Response given: 0 (no)

Challenge: Please indicate how the test categorized "S=c1[nH]c(=S)c2cc3ccccc3nc2[nH]1" .
Response given: 0 (no)

Challenge: Please indicate how the test categorized "COc1cc(Cl)cc(-c2nn(-c3cccc(NC(=O)c4ccc(N5CCOCC5)c(C(F)(F)F)c4)c3)cc2-c2ccncc2)c1" .
Response given: 0 (no)

Challenge: Please indicate how the test categorized "O=c1c(F)cn(Cc2ccc(C34CC5CC(CC(C5)C3)C4)c(O)c2)c(=O)n1Cc1ccc(C23CC4CC(CC(C4)C2)C3)c(O)c1" .
Response given: 0 (no)

Challenge: Please indicate how the test categorized "O=c1oc2ccc(-c3ccc(F)cc3F)cc2c(=O)n1-c1cccc(C(F)(F)F)c1" .
Response given: 0 (no)

====

# Tested on: RPMI-8226 leukemia
# assay remarks: NCI tumour cell line growth inhibition, 48 h; in the data active = GI50 below about 0.43 µM; inactive = the rest
Reply using exactly one outcome from active, inactive

Check out these entries, answers already filled in.
{"columns": ["molecule", "class"],
 "data": [
  ["COc1cnc2c(c1)C(=O)c1c-2n(CCCN2CCOCC2)c(=O)c2cc(Cl)ccc12", "active"],
  ["CCCC(=O)Nc1cn(COC)c(C(=O)N2C[C@@H]3C[C@]34C2=CC(=O)c2[nH]cc(C)c24)n1", "inactive"],
  ["O=c1c(F)cn(Cc2ccc(C34CC5CC(CC(C5)C3)C4)c(O)c2)c(=O)n1Cc1ccc(C23CC4CC(CC(C4)C2)C3)c(O)c1", "inactive"],
  ["CCOC(=O)Nc1cc2c(c(N)n1)N=C(c1ccccc1)CO2", "active"],
  ["CN1CCN(c2ccc(Nc3cc(-c4cccc(-n5ccc6cc(C7CC7)cc(F)c6c5=O)c4CO)cn(C)c3=O)nc2)CC1", "inactive"]
]}

Challenge: Please indicate how the test categorized CC(=O)ON1CCCC(P(=O)(OCCSC(=O)C(C)(C)C)OCCSC(=O)C(C)(C)C)C1=O (stereo not drawn) .
Response given: inactive

Challenge: Please indicate how the test categorized "O=C(Nc1cccc(C(F)(F)F)c1)c1ccc(NC2=C(Cl)C(=O)N(Cc3ccc(Cl)cc3Cl)C2=O)cc1" .
Response given: inactive

Challenge: Please indicate how the test categorized "NC(=O)c1c(NC(=O)c2ccccc2)sc2c1CCC(=O)C2" .
Response given: active
